All values here come from paper PMC11472313.

Target: E. coli LpxC C63A (Escherichia coli, UniProt P0A725, C63A)
Sequence (P0A725 whole entry C63A): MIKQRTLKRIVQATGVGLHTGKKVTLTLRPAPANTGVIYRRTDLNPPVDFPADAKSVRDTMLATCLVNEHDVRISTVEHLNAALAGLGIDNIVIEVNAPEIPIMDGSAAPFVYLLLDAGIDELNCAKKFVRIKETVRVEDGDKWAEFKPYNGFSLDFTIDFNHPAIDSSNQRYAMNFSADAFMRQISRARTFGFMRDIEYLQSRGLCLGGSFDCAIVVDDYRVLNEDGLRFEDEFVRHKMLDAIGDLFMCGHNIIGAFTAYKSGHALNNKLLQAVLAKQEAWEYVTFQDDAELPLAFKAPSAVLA
Experiment: fluorescence-based E. coli LpxC C63A enzyme inhibition assay
Details: Ki E. coli LpxC C63A, from IC50 via Cheng–Prusoff
Measure: Ki

> print(dat)
                                   compound  assay.value
1  O=C(NC[C@@H](OCc1ccc(C#Cc2ccc(CN3CCOCC3)cc2)cc1)C(=O)NO)c1cc(-c2ccccc2)[nH]n1 [(R)-13m]    > 2540 nM
2  O=C(NC[C@H](OCc1ccc(C#Cc2ccc(CN3CCOCC3)cc2)cc1)C(=O)NO)c1ccc(-c2ccccc2)cc1 [(S)-13b]    > 2540 nM
3  O=C(NC[C@@H](OCc1ccc(C#Cc2ccc(CN3CCOCC3)cc2)cc1)C(=O)NO)c1cc2ccccc2[nH]1 [(R)-13g]    > 2540 nM
